Measured values drawn from the supplement of paper PMC11219838 for this set.

# Test system: Caenorhabditis elegans dauer (daf-2(e1370))
# protocol_text: proportion of mobile C. elegans dauer larvae relative to DMSO control (fraction of DMSO control); higher = more viable, less nematicidal, active = 0.63 or less; extreme values may be limits of the assay
# run_conditions: 60 µM; 5 days; temperature: 20 °C
Valid outcomes are listed here; reply with one: yes (active), no (inactive)

Please review the following examples before continuing.
{"molecule": "CCn1c(SCc2ccc(OC)cc2)nnc1-c1ccco1", "system_tested": "Caenorhabditis elegans dauer (daf-2(e1370))", "assigned_category": "no"}
{"molecule": "Cc1ccc(-c2nc(C3CCCCC3)no2)cc1", "system_tested": "Caenorhabditis elegans dauer (daf-2(e1370))", "assigned_category": "no"}
{"molecule": "CCOc1cc(-c2nc(-c3cccnc3)no2)cc(OCC)c1OCC", "system_tested": "Caenorhabditis elegans dauer (daf-2(e1370))", "assigned_category": "no"}
{"molecule": "COc1cccc(-c2nnc(SCC(=O)Nc3ccccc3)o2)c1", "system_tested": "Caenorhabditis elegans dauer (daf-2(e1370))", "assigned_category": "no"}
{"molecule": "COc1cccc(-c2nc(-c3ccc(Br)cc3)no2)c1", "system_tested": "Caenorhabditis elegans dauer (daf-2(e1370))", "assigned_category": "yes"}

Please state the recorded outcome for this molecule: c1ccc(-c2noc(-c3cccs3)n2)cc1 [tioxazafen]
yes

====

Kindly state proportion of mobile C. elegans dauer larvae for each of the entries shown.
# System: Caenorhabditis elegans dauer (daf-2(e1370))
# protocol_text: proportion of mobile C. elegans dauer larvae relative to DMSO control (fraction of DMSO control); higher = more viable, less nematicidal, active = 0.63 or less; extreme values may be limits of the assay
# run_conditions: 60 µM; 5 days; temperature: 20 °C
One number for each entry.

Examples with their reported proportion of mobile C. elegans dauer larvae follow.
{"structure_smiles": "Brc1ccc(-c2noc(-c3ccco3)n2)o1", "system_tested": "Caenorhabditis elegans dauer (daf-2(e1370))", "numeric_result": 0.391}
{"structure_smiles": "Cc1ccc(C)c(-c2nc(-c3cccnc3)no2)c1", "system_tested": "Caenorhabditis elegans dauer (daf-2(e1370))", "numeric_result": 0.727}
{"structure_smiles": "COc1ccc(-c2noc(-c3ccc(Br)cc3)n2)cc1", "system_tested": "Caenorhabditis elegans dauer (daf-2(e1370))", "numeric_result": 1}
{"structure_smiles": "CCOc1ccccc1-c1nc(-c2ccc(F)cc2)no1", "system_tested": "Caenorhabditis elegans dauer (daf-2(e1370))", "numeric_result": 1}
{"structure_smiles": "Clc1ccc(-c2nc(-c3ccncc3)no2)c(Cl)c1", "system_tested": "Caenorhabditis elegans dauer (daf-2(e1370))", "numeric_result": 1}
{"structure_smiles": "Clc1ccccc1-c1noc(COc2ccc(Br)cc2)n1", "system_tested": "Caenorhabditis elegans dauer (daf-2(e1370))", "numeric_result": 1}
{"structure_smiles": "CC(C)(C)C(=O)CSc1nnc(-c2ccc(Cl)cc2Cl)o1", "system_tested": "Caenorhabditis elegans dauer (daf-2(e1370))", "numeric_result": 1}
{"structure_smiles": "COc1ccccc1-c1nnc(SCC(=O)Nc2ccc(F)cc2)o1", "system_tested": "Caenorhabditis elegans dauer (daf-2(e1370))", "numeric_result": 1}

Give measured proportion of mobile C. elegans dauer larvae for every item shown.
1. Cc1ccc(-c2nnc(SCc3c(C)cc(C)cc3C)o2)cc1
2. c1ccc(COc2cccc(-c3nc(-c4ccccn4)no3)c2)cc1
3. COc1ccc(-c2noc(COc3ccc(Br)cc3)n2)cc1
4. CCOc1ccc(-c2nc(-c3ccccc3)no2)cc1

1
1
1
1
